- Procedure Details: Drug excretion in bile (unknown origin)
- Type: ADME, tissue-based
- Test Conditions: human, read-out: Drug excretion
Recorded Endpoint: dose excreted (%)
Number only, in %; omit the unit.

dose excreted reported for this compound C[C@H]1O[C@@H](O[C@H]2[C@@H](O)C[C@H](O[C@H]3[C@@H](O)C[C@H](O[C@H]4CC[C@@]5(C)[C@H](CC[C@@H]6[C@@H]5C[C@@H](O)[C@]5(C)[C@@H](C7=CC(=O)OC7)CC[C@]65O)C4)O[C@@H]3C)O[C@@H]2C)C[C@H](O)[C@@H]1O : 30

###

- Procedure Details: Drug excretion in urine (unknown origin)
- Format: ADME, tissue-based
- Test Conditions: human, read-out: Drug excretion
Recorded Endpoint: dose excreted (%)
Record the value in %, omitting the unit from your answer.

Looking up C[C@H]1O[C@@H](O[C@H]2[C@@H](O)C[C@H](O[C@H]3[C@@H](O)C[C@H](O[C@H]4CC[C@@]5(C)[C@H](CC[C@@H]6[C@@H]5C[C@@H](O)[C@]5(C)[C@@H](C7=CC(=O)OC7)CC[C@]65O)C4)O[C@@H]3C)O[C@@H]2C)C[C@H](O)[C@@H]1O [DIGOXIN] , I see its dose excreted listed as 50
